Below are IC50 measurements against Pepsin A (Sus scrofa) drawn from the literature.
Sequence (P00791 whole entry): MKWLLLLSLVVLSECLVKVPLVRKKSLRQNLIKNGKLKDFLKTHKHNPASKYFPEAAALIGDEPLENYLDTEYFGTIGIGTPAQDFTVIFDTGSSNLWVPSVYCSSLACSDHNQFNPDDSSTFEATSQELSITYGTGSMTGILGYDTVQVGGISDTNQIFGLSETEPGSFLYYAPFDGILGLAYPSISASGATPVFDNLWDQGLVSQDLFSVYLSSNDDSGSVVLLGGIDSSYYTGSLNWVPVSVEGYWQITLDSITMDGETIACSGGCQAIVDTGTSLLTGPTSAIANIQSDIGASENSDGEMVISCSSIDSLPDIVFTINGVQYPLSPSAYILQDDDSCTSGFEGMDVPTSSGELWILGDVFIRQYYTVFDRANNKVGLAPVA

>>> result("CC(C)OC(=O)[C@H](O)[C@H](CC1CCCCC1)NC(=O)[C@H](Cc1c[nH]cn1)NC(=O)[C@@H](CC(=O)N1CCOCC1)Cc1cccc2ccccc12")
"> 100 µM"
>>> result("CC[C@H](C)[C@H](NC(=O)C[C@H](O)[C@H](CC1CCCCC1)NC(=O)CCC(=O)[C@H](Cc1ccccc1)NC(=O)OC(C)(C)C)C(=O)NCc1cnc(C)nc1N")
"> 10 µM"
>>> result("CC[C@H](C)[C@H](NC(=O)C[C@H](O)[C@H](CC1CCCCC1)NC(=O)CC[C@H](O)[C@H](Cc1ccccc1)NC(=O)OC(C)(C)C)C(=O)NCc1cnc(C)nc1N")
"> 10 µM"

Lab note: next compound to report on.
Query: Answer with IC50 of CCCCNC(=O)[C@@H](C)C[C@@H](O)[C@@H](CC1CCCCC1)NC(=O)[C@H](CCCC)OP(=O)(O)CCCc1ccccc1 measured for Pepsin A (Sus scrofa).
Reply: > 10 µM
